All figures here come from ChEMBL document CHEMBL1126634.

target: Human immunodeficiency virus type 1 protease (Human immunodeficiency virus 1); assay: Antiviral potency of HIV-1 in MT-4 human T lymphoid cells with IIIb isolate; format: functional, cell-based
assay.endpoint: log10 of IC95 (log10 of the value in µM)
Field: value | Transform: log10 | Quantity: IC95 | Unit: µM

Example entries begin here.
molecule.smiles	study.target	assay.endpoint	endpoint.value
CC(C)[C@@H]1[C@H](OC(=O)N[C@@H](Cc2ccccc2)[C@H](O)CN2C[C@H]3CCCC[C@H]3C[C@H]2C(=O)NC(C)(C)C)CCS1(=O)=O	Human immunodeficiency virus type 1 protease (Human immunodeficiency virus 1)	log10 of IC95	-1.30
CC[C@@H]1[C@H](OC(=O)N[C@@H](Cc2ccccc2)[C@H](O)CN2C[C@H]3CCCC[C@H]3C[C@H]2C(=O)NC(C)(C)C)CCS1(=O)=O	Human immunodeficiency virus type 1 protease (Human immunodeficiency virus 1)	log10 of IC95	-0.10
C[C@@H]1[C@H](OC(=O)N[C@@H](Cc2ccccc2)[C@H](O)CN2C[C@H]3CCCC[C@H]3C[C@H]2C(=O)NC(C)(C)C)CCS1(=O)=O	Human immunodeficiency virus type 1 protease (Human immunodeficiency virus 1)	log10 of IC95	-0.70
CC(C)C[C@@H]1[C@H](OC(=O)N[C@@H](Cc2ccccc2)[C@H](O)CN2C[C@H]3CCCC[C@H]3C[C@H]2C(=O)NC(C)(C)C)CCS1(=O)=O	Human immunodeficiency virus type 1 protease (Human immunodeficiency virus 1)	log10 of IC95	0.18

Proceeding to the next molecule to report its log10 of IC95.
Name the reported log10 of IC95 value associated with the molecule CC[C@H]1[C@@H](OC(=O)N[C@@H](Cc2ccccc2)[C@H](O)CN2C[C@H]3CCCC[C@H]3C[C@H]2C(=O)NC(C)(C)C)CCS1(=O)=O
-0.40
